Target Under Test: human N-type Ca channel (Homo sapiens, UniProt Q00975)
Sequence (Q00975 whole entry): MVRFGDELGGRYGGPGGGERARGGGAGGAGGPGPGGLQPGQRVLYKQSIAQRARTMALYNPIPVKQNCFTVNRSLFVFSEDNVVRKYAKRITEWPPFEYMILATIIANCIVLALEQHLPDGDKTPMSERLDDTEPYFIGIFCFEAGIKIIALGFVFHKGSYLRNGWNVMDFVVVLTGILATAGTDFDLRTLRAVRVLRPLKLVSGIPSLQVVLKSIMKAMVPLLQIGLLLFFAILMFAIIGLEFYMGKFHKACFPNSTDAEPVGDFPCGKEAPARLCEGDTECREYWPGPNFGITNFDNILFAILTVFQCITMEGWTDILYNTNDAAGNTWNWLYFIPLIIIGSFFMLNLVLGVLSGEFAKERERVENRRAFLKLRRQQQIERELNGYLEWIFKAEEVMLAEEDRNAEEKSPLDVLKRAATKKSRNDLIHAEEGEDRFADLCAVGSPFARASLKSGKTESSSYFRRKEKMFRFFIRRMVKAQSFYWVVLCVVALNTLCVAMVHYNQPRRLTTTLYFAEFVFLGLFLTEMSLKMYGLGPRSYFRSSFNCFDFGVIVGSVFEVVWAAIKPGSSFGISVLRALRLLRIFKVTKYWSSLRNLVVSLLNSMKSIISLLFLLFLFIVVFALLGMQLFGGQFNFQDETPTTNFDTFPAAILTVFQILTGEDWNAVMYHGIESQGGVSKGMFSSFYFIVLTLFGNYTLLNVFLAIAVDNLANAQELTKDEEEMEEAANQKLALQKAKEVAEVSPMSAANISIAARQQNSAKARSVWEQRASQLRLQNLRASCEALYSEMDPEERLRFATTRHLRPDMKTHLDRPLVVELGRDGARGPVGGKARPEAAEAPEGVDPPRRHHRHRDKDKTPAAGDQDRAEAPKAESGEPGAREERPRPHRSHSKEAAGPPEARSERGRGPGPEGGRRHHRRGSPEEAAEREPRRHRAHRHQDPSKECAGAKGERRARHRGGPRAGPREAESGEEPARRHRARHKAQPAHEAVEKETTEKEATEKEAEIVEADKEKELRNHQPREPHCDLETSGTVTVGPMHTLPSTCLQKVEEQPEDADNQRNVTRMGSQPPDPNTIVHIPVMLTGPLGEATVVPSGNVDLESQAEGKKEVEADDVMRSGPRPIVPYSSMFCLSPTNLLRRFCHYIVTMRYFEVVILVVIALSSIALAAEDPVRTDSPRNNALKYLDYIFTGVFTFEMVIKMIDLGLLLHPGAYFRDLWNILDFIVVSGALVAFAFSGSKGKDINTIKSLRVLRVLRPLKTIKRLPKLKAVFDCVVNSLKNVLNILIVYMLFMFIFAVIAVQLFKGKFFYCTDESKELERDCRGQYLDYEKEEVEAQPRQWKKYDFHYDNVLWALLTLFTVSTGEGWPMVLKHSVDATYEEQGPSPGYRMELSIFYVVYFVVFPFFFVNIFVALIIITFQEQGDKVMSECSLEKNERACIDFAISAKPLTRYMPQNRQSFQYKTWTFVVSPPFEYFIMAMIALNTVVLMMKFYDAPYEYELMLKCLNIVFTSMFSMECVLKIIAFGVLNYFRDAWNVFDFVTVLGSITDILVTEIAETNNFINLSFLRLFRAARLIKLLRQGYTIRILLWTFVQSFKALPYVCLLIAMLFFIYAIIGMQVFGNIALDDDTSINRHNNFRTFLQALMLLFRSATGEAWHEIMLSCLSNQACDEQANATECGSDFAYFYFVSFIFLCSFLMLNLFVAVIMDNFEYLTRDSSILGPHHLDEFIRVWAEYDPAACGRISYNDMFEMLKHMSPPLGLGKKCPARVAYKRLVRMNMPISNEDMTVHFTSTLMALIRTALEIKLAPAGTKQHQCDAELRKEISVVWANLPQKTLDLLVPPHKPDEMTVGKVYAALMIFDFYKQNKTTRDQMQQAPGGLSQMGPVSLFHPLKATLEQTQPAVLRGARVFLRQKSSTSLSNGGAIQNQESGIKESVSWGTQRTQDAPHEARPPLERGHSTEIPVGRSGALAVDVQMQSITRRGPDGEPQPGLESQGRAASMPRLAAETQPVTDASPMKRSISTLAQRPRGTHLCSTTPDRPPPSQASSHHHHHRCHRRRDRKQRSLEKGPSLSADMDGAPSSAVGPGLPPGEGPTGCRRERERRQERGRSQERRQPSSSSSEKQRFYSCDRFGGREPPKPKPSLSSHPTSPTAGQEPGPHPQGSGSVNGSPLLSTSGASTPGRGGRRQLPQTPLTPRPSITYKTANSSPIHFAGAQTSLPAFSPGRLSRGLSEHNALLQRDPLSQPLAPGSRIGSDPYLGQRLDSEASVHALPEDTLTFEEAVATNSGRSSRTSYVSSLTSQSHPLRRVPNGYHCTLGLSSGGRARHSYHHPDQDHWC
Sequence (P54284 whole entry partner): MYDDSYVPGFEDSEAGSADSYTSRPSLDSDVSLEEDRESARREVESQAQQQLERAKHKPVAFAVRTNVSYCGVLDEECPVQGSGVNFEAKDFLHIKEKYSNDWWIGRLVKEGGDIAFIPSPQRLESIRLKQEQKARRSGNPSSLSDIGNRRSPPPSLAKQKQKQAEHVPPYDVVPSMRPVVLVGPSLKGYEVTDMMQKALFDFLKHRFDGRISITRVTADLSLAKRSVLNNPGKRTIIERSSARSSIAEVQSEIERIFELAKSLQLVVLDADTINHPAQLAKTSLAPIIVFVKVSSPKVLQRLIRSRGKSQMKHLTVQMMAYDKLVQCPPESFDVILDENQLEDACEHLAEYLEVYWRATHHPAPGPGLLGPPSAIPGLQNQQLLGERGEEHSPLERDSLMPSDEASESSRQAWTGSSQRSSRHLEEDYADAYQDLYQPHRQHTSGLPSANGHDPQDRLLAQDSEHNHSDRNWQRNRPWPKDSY
Sequence (P54289 25-956 partner limits assumed): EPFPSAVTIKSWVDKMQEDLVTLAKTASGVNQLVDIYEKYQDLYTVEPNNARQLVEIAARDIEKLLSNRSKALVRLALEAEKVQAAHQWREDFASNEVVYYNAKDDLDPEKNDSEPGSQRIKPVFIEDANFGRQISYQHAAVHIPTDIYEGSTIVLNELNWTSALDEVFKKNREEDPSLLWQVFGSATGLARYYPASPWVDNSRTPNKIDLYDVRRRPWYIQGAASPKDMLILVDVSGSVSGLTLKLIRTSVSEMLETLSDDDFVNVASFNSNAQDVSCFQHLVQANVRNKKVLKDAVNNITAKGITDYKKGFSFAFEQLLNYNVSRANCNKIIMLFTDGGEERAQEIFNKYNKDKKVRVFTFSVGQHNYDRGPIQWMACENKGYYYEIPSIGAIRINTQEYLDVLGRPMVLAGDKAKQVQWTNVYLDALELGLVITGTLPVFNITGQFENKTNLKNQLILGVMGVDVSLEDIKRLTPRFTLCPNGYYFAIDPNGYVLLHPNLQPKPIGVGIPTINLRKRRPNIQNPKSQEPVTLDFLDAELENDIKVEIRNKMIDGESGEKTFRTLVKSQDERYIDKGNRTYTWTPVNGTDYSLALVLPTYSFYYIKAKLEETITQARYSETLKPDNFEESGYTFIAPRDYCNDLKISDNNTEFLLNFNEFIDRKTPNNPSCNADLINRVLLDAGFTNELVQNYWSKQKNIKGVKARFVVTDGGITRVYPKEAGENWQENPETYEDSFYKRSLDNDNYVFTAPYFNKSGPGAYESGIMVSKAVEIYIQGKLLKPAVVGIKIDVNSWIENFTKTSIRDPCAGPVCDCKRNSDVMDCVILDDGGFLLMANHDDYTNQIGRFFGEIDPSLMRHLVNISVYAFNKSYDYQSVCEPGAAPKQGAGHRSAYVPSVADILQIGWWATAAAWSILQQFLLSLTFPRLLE
Sequence (P54289 957-1103 partner limits assumed): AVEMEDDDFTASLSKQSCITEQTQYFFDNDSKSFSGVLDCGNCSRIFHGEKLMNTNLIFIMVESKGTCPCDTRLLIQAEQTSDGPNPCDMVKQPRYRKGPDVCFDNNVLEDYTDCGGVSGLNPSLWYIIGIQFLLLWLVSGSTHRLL
Method Summary: Electrophysiological response, QPatch (depolarization -80 mV to +20 mV)
Conditions: read-out: Qpatch Pulse=15 (percent inhibition)
Let's look at some compounds and their measured inhibition at 10 µM.

# Structure Notation, inhibition at 10 µM (%)
rows = [
    ("COc1ncccc1-c1nc(C2CC(C)(C)OC(C)(C)C2)cn1-c1ccc(F)cc1F", 35),
    ("COc1ccncc1-c1nc(C2CC(C)(C)OC(C)(C)C2)cn1-c1ccc(F)cc1", 29),
    ("COc1ccccc1-c1nc(C2(O)CC(C)(C)OC(C)(C)C2)cn1-c1ccc(F)c(C#N)c1", 25),
    ("COc1ncccc1-c1nc(C2CC(C)(C)OC(C)(C)C2)cn1-c1ccc(C#N)c(F)c1", 28),
]

###

Target Under Test: human N-type Ca channel (Homo sapiens, UniProt Q00975)
Method Summary: Electrophysiological response, QPatch (depolarization -80 mV to +20 mV)
Conditions: N Type IC50 Data Qpatch Pulse=15, Pulse=15; concentration range 0.01-1 µM
Listing of recorded IC50 by entry.

# Compound, Target Under Test, Qualifier Sign, IC50, µM
measured = [
    ("CCOc1ncccc1-c1nc(C2CC(C)(C)OC(C)(C)C2)cn1-c1ccc(Cl)cc1 [Compound 51]", "human N-type Ca channel (Homo sapiens, UniProt Q00975)", "=", 0.701),
    ("COc1ccccc1-c1nc(C2CC(C)(C)OC(C)(C)C2)cn1-c1ccc(C#N)c(Cl)c1 [Compound 123]", "human N-type Ca channel (Homo sapiens, UniProt Q00975)", ">", 1),
    ("COc1ccccc1-c1nc(C2CC(C)(C)OC(C)(C)C2)cn1-c1ccc(C)c(C#N)c1 [Compound 22]", "human N-type Ca channel (Homo sapiens, UniProt Q00975)", "=", 0.847),
    ("COc1ncccc1-c1nc(C2CC(C)(C)OC(C)(C)C2)cn1-c1ccc(C(F)(F)F)nc1 [Compound 54]", "human N-type Ca channel (Homo sapiens, UniProt Q00975)", "=", 0.237),
    ("COc1nccnc1-c1nc(C2CC(C)(C)OC(C)(C)C2)cn1-c1ccc(Cl)cc1 [Compound 50]", "human N-type Ca channel (Homo sapiens, UniProt Q00975)", "=", 0.971),
    ("COc1ncccc1-c1nc(C2CC(C)(C)OC(C)(C)C2)cn1-c1cccc(C#N)c1 [Compound 48]", "human N-type Ca channel (Homo sapiens, UniProt Q00975)", "=", 0.843),
]

###

Target Under Test: human N-type Ca channel (Homo sapiens, UniProt Q00975)
Method Summary: Calcium influx assay (FDSS), KCl depolarization, Fluo8 dye
Assay type: cell-based
Design: host or cells: HEK 293
Conditions: HEK 293 cells expressing human N-type Ca channel; 100 mM KCl; read-out: N Type IC50 Data FDSS
pIC50: −log10 of the molar value.
pIC50 of 6 or higher: class 1. Under 6: class 0.

# Molecule, Label Class
measured = [
    ("COc1ccc(-n2cc(C3CC(C)(C)OC(C)(C)C3)nc2-c2cccnc2OC)cc1C#N [Compound 85]", "class 0"),
    ("COc1ccccc1-c1nc(C2CC(C)(C)OC(C)(C)C2)cn1-c1ccc(Cl)cc1 [Compound 38]", "class 1"),
    ("COc1ccccc1-c1nc(C2CC(C)(C)OC(C)(C)C2)cn1-c1ccc(F)cc1 [Compound 4]", "class 1"),
    ("COc1nccnc1-c1nc(C2CC(C)(C)OC(C)(C)C2)cn1-c1ccc(C#N)c(F)c1 [Compound 88]", "class 0"),
    ("COc1ccccc1-c1nc(C2CC(C)(C)OC(C)(C)C2)cn1-c1ccc(F)c(Br)c1 [Compound 63]", "class 1"),
    ("COc1ccccc1-c1nc(C2CC(C)(C)OC(C)(C)C2)cn1-c1ccc(C)c(C#N)c1 [Compound 22]", "class 1"),
    ("COc1ncccc1-c1nc(C2CC(C)(C)OC(C)(C)C2)cn1-c1cc(F)cc(F)c1 [Compound 72]", "class 0"),
]

###

Target Under Test: human N-type Ca channel (Homo sapiens, UniProt Q00975)
Method Summary: Electrophysiological response, QPatch (depolarization -80 mV to +20 mV)
Conditions: Pulse=15; concentration range 0.01-1 µM
Measurement Label: N Type IC50 Data Qpatch Pulse=15

# Compound, Test Result
rows = [
    ("COc1ncccc1-c1nc(C2CC(C)(C)OC(C)(C)C2)cn1-c1cc(F)ccc1F [Compound 71]", "poor fit(0.01- 1 µM)"),
    ("COc1ncccc1-c1nc(C2CC(C)(C)OC(C)(C)C2)cn1-c1cc(F)cc(F)c1 [Compound 72]", "poor fit(0.01- 1 µM)"),
    ("COc1ncccc1-c1nc(C2CC(C)(C)OC(C)(C)C2)cn1-c1cc(F)cc(C#N)c1 [Compound 73]", "poor fit(0.01- 1 µM)"),
]

###

Target Under Test: human N-type Ca channel (Homo sapiens)
Method Summary: Electrophysiological response, QPatch (depolarization -80 mV to +20 mV)
Conditions: N Type IC50 Data Qpatch Pulse=1, Pulse=1; concentration range 0.01-1 µM
pIC50: −log10 of the molar value.
Measurement Label: pIC50

# Compound, Measurement Label, Qualifier Sign, Test Result
rows = [
    ("COc1ncccc1-c1nc(C2CC(C)(C)OC(C)(C)C2)cn1-c1ccc(C(F)(F)F)nc1 [Compound 54]", "pIC50", "=", 6.52),
    ("CCOc1ccc(-n2cc(C3CC(C)(C)OC(C)(C)C3)nc2-c2ccncc2OC)cc1 [Compound 3]", "pIC50", "=", 6.08),
    ("COc1ccncc1-c1nc(C2CC(C)(C)OC(C)(C)C2)cn1-c1ccc(F)c(Cl)c1 [Compound 20]", "pIC50", "<", 6.00),
    ("COc1cccnc1-c1nc(C2CC(C)(C)OC(C)(C)C2)cn1-c1ccc(Cl)c(F)c1 [Compound 19]", "pIC50", "=", 6.02),
    ("COc1ccccc1-c1nc(C2CC(C)(C)OC(C)(C)C2)cn1-c1ccc(C#N)cc1 [Compound 1]", "pIC50", "=", 6.44),
    ("COc1ccccc1-c1nc(C2CC(C)(C)OC(C)(C)C2)cn1-c1cnc(C)nc1 [Compound 8]", "pIC50", "=", 6.29),
    ("COc1cnccc1-c1nc(C2CC(C)(C)OC(C)(C)C2)cn1-c1ccc(Cl)c(F)c1 [Compound 13]", "pIC50", "<", 6.00),
    ("COc1ccccc1-c1nc(C2CC(C)(C)OC(C)(C)C2)cn1Cc1cccc(C#N)c1 [Compound 101]", "pIC50", "<", 6.00),
    ("COc1ccccc1-c1nc(C2CC(C)(C)OC(C)(C)C2)cn1-c1ccc(C#N)c(Cl)c1 [Compound 123]", "pIC50", "=", 6.33),
    ("COc1ccccc1-c1nc(C2CC(C)(C)OC(C)(C)C2)cn1-c1ccc(Cl)c(C#N)c1 [Compound 14]", "pIC50", "=", 6.58),
    ("COc1ccccc1-c1nc(C2CC(C)(C)OC(C)(C)C2)cn1-c1cccc(C#N)c1 [Compound 32]", "pIC50", "<", 6.00),
    ("COc1ccccc1-c1nc(C2CC(C)(C)OC(C)(C)C2)cn1-c1ccc(C#N)cc1F [Compound 36]", "pIC50", "=", 6.42),
    ("COc1ncccc1-c1nc(C2CC(C)(C)OC(C)(C)C2)c(Cl)n1-c1ccc(F)cc1 [Compound 92]", "pIC50", "=", 6.60),
    ("CCOc1ncccc1-c1nc(C2CC(C)(C)OC(C)(C)C2)cn1-c1ccc(Cl)cc1 [Compound 51]", "pIC50", "=", 6.75),
    ("COc1cnccc1-c1nc(C2CC(C)(C)OC(C)(C)C2)cn1-c1ccc(F)c(Cl)c1 [Compound 18]", "pIC50", "=", 6.16),
    ("COc1ncccc1-c1nc(C2(O)CC(C)(C)OC(C)(C)C2)cn1-c1ccc(Cl)cc1 [Compound 105]", "pIC50", "=", 6.02),
]

###

Target Under Test: human N-type Ca channel (Homo sapiens, UniProt Q00975)
Method Summary: Electrophysiological response, QPatch (depolarization -80 mV to +20 mV)
Conditions: read-out: Qpatch Pulse=1 (percent inhibition)
Each entry gets Not satisfied if its inhibition at 10 µM stays under 40%, and Satisfied if its inhibition at 10 µM is 40% or above.

# Structure Notation, Target Under Test, Label Class
records = [
    ("COc1ncccc1-c1nc(C2(O)CC(C)(C)OC(C)(C)C2)cn1-c1ccc(F)c(Cl)c1", "human N-type Ca channel (Homo sapiens, UniProt Q00975)", "Satisfied"),
    ("COc1ccccc1-c1nc(C2=CC(C)(C)OC(C)(C)C2)cn1-c1ccc(C#N)c(F)c1", "human N-type Ca channel (Homo sapiens, UniProt Q00975)", "Not satisfied"),
    ("COc1ccncc1-c1nc(C2CC(C)(C)OC(C)(C)C2)cn1-c1ccc(F)cc1", "human N-type Ca channel (Homo sapiens, UniProt Q00975)", "Satisfied"),
    ("COc1ncccc1-c1nc(C2CC(C)(C)OC(C)(C)C2)cn1-c1ccc(F)c(F)c1", "human N-type Ca channel (Homo sapiens, UniProt Q00975)", "Satisfied"),
    ("COc1ccccc1-c1nc(C2CC(C)(C)OC(C)(C)C2)cn1-c1ccc(F)c(Br)c1", "human N-type Ca channel (Homo sapiens, UniProt Q00975)", "Satisfied"),
    ("COc1ncccc1-c1nc(C2CC(C)(C)OC(C)(C)C2)cn1-c1ccc(F)cc1F", "human N-type Ca channel (Homo sapiens, UniProt Q00975)", "Satisfied"),
    ("COc1ncccc1-c1nc(C2CC(C)(C)OC(C)(C)C2)cn1-c1ccc(Br)c(F)c1", "human N-type Ca channel (Homo sapiens, UniProt Q00975)", "Satisfied"),
    ("COc1ncccc1-c1nc(C2(O)CC(C)(C)OC(C)(C)C2)cn1-c1ccc(C#N)c(F)c1", "human N-type Ca channel (Homo sapiens, UniProt Q00975)", "Not satisfied"),
    ("COc1ncccc1-c1nc(C2CC(C)(C)OC(C)(C)C2)cn1-c1ccc(F)c(C#N)c1", "human N-type Ca channel (Homo sapiens, UniProt Q00975)", "Not satisfied"),
    ("COc1ccccc1-c1nc(C2(O)CC(C)(C)OC(C)(C)C2)cn1-c1ccc(F)c(Cl)c1", "human N-type Ca channel (Homo sapiens, UniProt Q00975)", "Satisfied"),
]
